Each entry below lists one item and its recorded shrunken log2 fold change value.
# System: Escherichia coli TOP10
# experiment summary: shrunken log2 fold change of peptide-encoding DNA abundance (4.5 h post-induction vs induction); higher = less antimicrobial activity (less host growth inhibition)
# condition summary: time post-induction: 4.5 h; library: site-saturation at positions 5, 18, 19, 20
// keep it numeric: no unit symbol after the value

RRIRARPPRLPRPRPRPEEPPRP = 1.24
RRIRERPPRLPRPRPRPAKAPRP = 0.0877
RRIRHRPPRLPRPRPRPTCNPRP = -0.411
RRIRFRPPRLPRPRPRPQRHPRP = -0.0437

query: # get_value(readout='shrunken log2 fold change', item= RRIRTRPPRLPRPRPRPIEPPRP )
result: -0.0864

query: Repeat with RRIRIRPPRLPRPRPRPAVMPRP
result: -0.129

query: Repeat with RRIRWRPPRLPRPRPRPDGYPRP
result: -0.0244

query: Repeat with RRIRERPPRLPRPRPRPKPGPRP
result: 0.469

query: Repeat with RRIRQRPPRLPRPRPRPNIGPRP
result: -0.0212

query: Repeat with RRIRRRPPRLPRPRPRPGPVPRP
result: 0.332

query: Repeat with RRIRRRPPRLPRPRPRPYEAPRP
result: 0.125

====

Each entry below lists one item and its recorded shrunken log2 fold change value.
# System: Escherichia coli TOP10
# experiment summary: shrunken log2 fold change of peptide-encoding DNA abundance (4.5 h post-induction vs induction); higher = less antimicrobial activity (less host growth inhibition)
# condition summary: time post-induction: 4.5 h; library: site-saturation at positions 5, 18, 19, 20
// keep it numeric: no unit symbol after the value

RRIRMRPPRLPRPRPRPTVGPRP = 0.146
RRIRARPPRLPRPRPRPMQFPRP = 0.091
RRIRYRPPRLPRPRPRPKVFPRP = 0.149
RRIRHRPPRLPRPRPRPHSHPRP = -0.41
RRIRIRPPRLPRPRPRPKCDPRP = -0.352
RRIRERPPRLPRPRPRPAQHPRP = 0.124
RRIRVRPPRLPRPRPRPYWSPRP = 0.000469
RRIRCRPPRLPRPRPRPVYLPRP = -0.646
RRIRNRPPRLPRPRPRPLDTPRP = -0.0954
RRIRARPPRLPRPRPRPLHGPRP = 0.155

query: # get_value(readout='shrunken log2 fold change', item= RRIRLRPPRLPRPRPRPYVWPRP )
result: -0.872

query: Repeat with RRIRRRPPRLPRPRPRPWTNPRP
result: 0.0119

query: Repeat with RRIRARPPRLPRPRPRPSEYPRP
result: -0.264

query: Repeat with RRIRNRPPRLPRPRPRPTMAPRP
result: 0.0535

query: Repeat with RRIRSRPPRLPRPRPRPSTTPRP
result: -0.433

query: Repeat with RRIRQRPPRLPRPRPRPCPPPRP
result: 0.00708

====

Each entry below lists one item and its recorded shrunken log2 fold change value.
# Test system: Escherichia coli TOP10;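 note: peptides expressed intracellularly from a pBAD plasmid library in pooled LB shake-flask culture, induced with 0.3% L-arabinose, DNA abundance read by NGS, three biological replicates, DESeq2 with apeglm shrinkage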
# experiment summary: shrunken log2 fold change of peptide-encoding DNA abundance (4.5 h post-induction vs induction); higher = less antimicrobial activity (less host growth inhibition)
# condition summary: time post-induction: 4.5 h; library: site-saturation at positions 5, 18, 19, 20
// keep it numeric: no unit symbol after the value

RRIRPRPPRLPRPRPRPIRGPRP = 0.182
RRIRPRPPRLPRPRPRPWPDPRP = -0.149

query: # get_value(readout='shrunken log2 fold change', item= RRIRNRPPRLPRPRPRPAWWPRP )
result: 0.293

query: Repeat with RRIRFRPPRLPRPRPRPACMPRP
result: -0.263

query: Repeat with RRIRKRPPRLPRPRPRPLDSPRP
result: 0.233

query: Repeat with RRIRVRPPRLPRPRPRPLPWPRP
result: 0.196

query: Repeat with RRIRIRPPRLPRPRPRPPMCPRP
result: -0.0556

query: Repeat with RRIRARPPRLPRPRPRPHERPRP
result: 0.0956

query: Repeat with RRIRTRPPRLPRPRPRPSDKPRP
result: -0.0752

query: Repeat with RRIRHRPPRLPRPRPRPQIHPRP
result: -0.46

query: Repeat with RRIRNRPPRLPRPRPRPNQEPRP
result: -0.0316

query: Repeat with RRIRPRPPRLPRPRPRPEWYPRP
result: 0.203

query: Repeat with RRIRARPPRLPRPRPRPTNVPRP
result: 0.0619

query: Repeat with RRIRRRPPRLPRPRPRPSEHPRP
result: 0.453

query: Repeat with RRIRWRPPRLPRPRPRPHMAPRP
result: 0.00551
